- PROTOCOL NOTES: recombinant UMI read abundance after kanamycin selection (control-corrected) (log10(CPM+1)); higher = more efficient recombination; extreme values may be limits of the assay; sequences stand for … in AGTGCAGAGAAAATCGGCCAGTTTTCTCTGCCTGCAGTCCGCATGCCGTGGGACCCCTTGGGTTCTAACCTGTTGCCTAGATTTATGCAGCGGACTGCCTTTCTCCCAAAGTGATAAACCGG…AGGTTGGTTTCACT; site = the 11-nt donor;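 note: IS621 bridge recombinase in Escherichia coli cells against a fixed T5 target plasmid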
Measured recombinant UMI read abundance (log10) values are reported for all entries that follow.

| CHAIN SEQUENCE | recombinant UMI read abundance (log10) |
| --- | --- |
| AGGTGGACATGGACCGGTTTTCCCGGTAATCCGTATTTGTA (site AGGTGGACTTA) | 2.2 |
| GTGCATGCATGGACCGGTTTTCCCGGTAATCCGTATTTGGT (site GTTCATGCTAC) | 0.448 |
| ACGGTATCATGGACCGGTTTTCCCGGTAATCCGTATTTGCA (site ACTGTATCTTG) | 2.32 |
| AATAAGACATGGACCGGTTTTCCCGGTAATCCGTATTTGCA (site AATAAGACTTG) | 2.17 |
| AGAAAGGCATGGACCGGTTTTCCCGGTAATCCGTATTTGCG (site AGAAAGGCTTG) | 1.15 |

FYI, the data here is from the supplement of paper PMC11208160.
